Test system: MRC-5
Assay: MTS cytotoxicity assay, MRC-5
Assay type: cell-based
Conditions: Homo sapiens, MRC5, 72 h, MRC-5 normal fibroblasts, 3-day incubation
Method: All cells (if not indicated otherwise) were purchased from the American Tissue Culture Collection (ATCC; Manassas, VA, USA). […] To perform the cytotoxicity MTS assay, cell suspensions were prepared and diluted according to the cell type and the expected target cell density (25,000–35,000 cells/mL) based on cell growth characteristics. […] After this incubation period, the optical density (OD) was measured at 490 nm with an Envision microplate reader (Perkin Elmer, Waltham, Massachusetts, USA). […]
A collection of compounds and their measured IC50

[
  {
    "SMILES STR": "C=C(C)[C@@H]1CC[C@]2(C(=O)NCCCNC3=C4C=CC=[N+]4[B-](F)(F)n4cccc43)CC[C@]3(C)[C@H](CC[C@@H]4[C@@]5(C)CC[C@H](O)C(C)(C)[C@@H]5CC[C@]43C)[C@@H]12",
    "IC50": "> 50 µM"
  },
  {
    "SMILES STR": "C=C(C)[C@@H]1CC[C@]2(C(=O)NCCCN=[N+]=[N-])CC[C@]3(C)[C@H](CC[C@@H]4[C@@]5(C)CC[C@H](O)C(C)(C)[C@@H]5CC[C@]43C)[C@@H]12",
    "IC50": "> 50 µM"
  },
  {
    "SMILES STR": "C=C(C)[C@@H]1CC[C@]2(C(=O)N3CCN(CCNC(=O)OC(C)(C)C)CC3)CC[C@]3(C)[C@H](CC[C@@H]4[C@@]5(C)CC[C@H](OC(C)=O)C(C)(C)[C@@H]5CC[C@]43C)[C@@H]12",
    "IC50": "> 50 µM"
  },
  {
    "SMILES STR": "C=C(C)[C@@H]1CC[C@]2(C(=O)NCCCNC(=O)OC(C)(C)C)CC[C@]3(C)[C@H](CC[C@@H]4[C@@]5(C)CC[C@H](O)C(C)(C)[C@@H]5CC[C@]43C)[C@@H]12",
    "IC50": "17.6 µM"
  },
  {
    "SMILES STR": "C=C(C)[C@@H]1CC[C@]2(C(=O)N3CCN(CCN)CC3)CC[C@]3(C)[C@H](CC[C@@H]4[C@@]5(C)CC[C@H](OC(=O)CC(C)(C)C(=O)O)C(C)(C)[C@@H]5CC[C@]43C)[C@@H]12",
    "IC50": "> 50 µM"
  }
]

* * *

Notes on cytotoxic effect in the cell line panel (in words) obtained with entire cell line panel.
MEASUREMENT LABEL: cytotoxic effect in the cell line panel (in words)

[
  {
    "SMILES STR": "C=C(C)[C@@H]1CC[C@]2(C(=O)NCCCN=[N+]=[N-])CC[C@]3(C)[C@H](CC[C@@H]4[C@@]5(C)CC[C@H](OC(=O)CC(C)(C)C(=O)O)C(C)(C)[C@@H]5CC[C@]43C)[C@@H]12",
    "RECORDED VALUE": "medium cytotoxicity"
  },
  {
    "SMILES STR": "C=C(C)[C@@H]1CC[C@]2(C(=O)N3CCN(CCN)CC3)CC[C@]3(C)[C@H](CC[C@@H]4[C@@]5(C)CC[C@H](OC(=O)CC(C)(C)C(=O)O)C(C)(C)[C@@H]5CC[C@]43C)[C@@H]12",
    "RECORDED VALUE": "inactive"
  },
  {
    "SMILES STR": "C=C(C)[C@@H]1CC[C@]2(C(=O)NCCCN)CC[C@]3(C)[C@H](CC[C@@H]4[C@@]5(C)CC[C@H](O)C(C)(C)[C@@H]5CC[C@]43C)[C@@H]12",
    "RECORDED VALUE": "high cytotoxicity"
  },
  {
    "SMILES STR": "C=C(C)[C@@H]1CC[C@]2(C(=O)N3CCN(CCNC(=O)OC(C)(C)C)CC3)CC[C@]3(C)[C@H](CC[C@@H]4[C@@]5(C)CC[C@H](O)C(C)(C)[C@@H]5CC[C@]43C)[C@@H]12",
    "RECORDED VALUE": "high cytotoxicity"
  },
  {
    "SMILES STR": "C=C(C)[C@@H]1CC[C@]2(C(=O)N3CCN(CCN)CC3)CC[C@]3(C)[C@H](CC[C@@H]4[C@@]5(C)CC[C@H](O)C(C)(C)[C@@H]5CC[C@]43C)[C@@H]12",
    "RECORDED VALUE": "high cytotoxicity"
  },
  {
    "SMILES STR": "C=C(C)[C@@H]1CC[C@]2(C(=O)N3CCN(CCNC(=O)OC(C)(C)C)CC3)CC[C@]3(C)[C@H](CC[C@@H]4[C@@]5(C)CC[C@H](OC(C)=O)C(C)(C)[C@@H]5CC[C@]43C)[C@@H]12",
    "RECORDED VALUE": "inactive"
  },
  {
    "SMILES STR": "C=C(C)[C@@H]1CC[C@]2(C(=O)NCCCNC(=O)OC(C)(C)C)CC[C@]3(C)[C@H](CC[C@@H]4[C@@]5(C)CC[C@H](OC(=O)CC(C)(C)C(=O)O)C(C)(C)[C@@H]5CC[C@]43C)[C@@H]12",
    "RECORDED VALUE": "medium cytotoxicity"
  },
  {
    "SMILES STR": "C=C(C)[C@@H]1CC[C@]2(C(=O)NCCCNC3=C4C=CC=[N+]4[B-](F)(F)n4cccc43)CC[C@]3(C)[C@H](CC[C@@H]4[C@@]5(C)CC[C@H](O)C(C)(C)[C@@H]5CC[C@]43C)[C@@H]12",
    "RECORDED VALUE": "inactive"
  },
  {
    "SMILES STR": "C=C(C)[C@@H]1CC[C@]2(C(=O)NCCCN)CC[C@]3(C)[C@H](CC[C@@H]4[C@@]5(C)CC[C@H](OC(=O)CCNC6=C7C=CC=[N+]7[B-](F)(F)n7cccc76)C(C)(C)[C@@H]5CC[C@]43C)[C@@H]12",
    "RECORDED VALUE": "high cytotoxicity"
  },
  {
    "SMILES STR": "C=C(C)[C@@H]1CC[C@]2(C(=O)N3CCN(CCNC4=C5C=CC=[N+]5[B-](F)(F)n5cccc54)CC3)CC[C@]3(C)[C@H](CC[C@@H]4[C@@]5(C)CC[C@H](OC(=O)CC(C)(C)C(=O)O)C(C)(C)[C@@H]5CC[C@]43C)[C@@H]12",
    "RECORDED VALUE": "inactive"
  },
  {
    "SMILES STR": "C=C(C)[C@@H]1CC[C@]2(C(=O)NCCCNC3=C4C=CC=[N+]4[B-](F)(F)n4cccc43)CC[C@]3(C)[C@H](CC[C@@H]4[C@@]5(C)CC[C@H](OC(=O)CC(C)(C)C(=O)O)C(C)(C)[C@@H]5CC[C@]43C)[C@@H]12",
    "RECORDED VALUE": "medium cytotoxicity"
  },
  {
    "SMILES STR": "C=C(C)[C@@H]1CC[C@]2(C(=O)NCCCN)CC[C@]3(C)[C@H](CC[C@@H]4[C@@]5(C)CC[C@H](OC(=O)CC(C)(C)C(=O)O)C(C)(C)[C@@H]5CC[C@]43C)[C@@H]12",
    "RECORDED VALUE": "inactive"
  }
]

* * *

A collection of compounds and their measured pIC50
Tested on: U2OS
Assay: MTS cytotoxicity assay, U2OS
Type: cell-based
Details: Homo sapiens, 72 h, 3-day incubation
pIC50: −log10 of the molar value.
MEASUREMENT LABEL: pIC50

[
  {
    "COMPOUND": "C=C(C)[C@@H]1CC[C@]2(C(=O)NCCCN=[N+]=[N-])CC[C@]3(C)[C@H](CC[C@@H]4[C@@]5(C)CC[C@H](OC(=O)CC(C)(C)C(=O)O)C(C)(C)[C@@H]5CC[C@]43C)[C@@H]12",
    "VALUE RELATION SIGN": "=",
    "RECORDED VALUE": 4.65
  },
  {
    "COMPOUND": "C=C(C)[C@@H]1CC[C@]2(C(=O)O)CC[C@]3(C)[C@H](CC[C@@H]4[C@@]5(C)CC[C@H](OC(=O)CC(C)(C)C(=O)O)C(C)(C)[C@@H]5CC[C@]43C)[C@@H]12 [BT, reference compound]",
    "VALUE RELATION SIGN": "=",
    "RECORDED VALUE": 4.56
  },
  {
    "COMPOUND": "C=C(C)[C@@H]1CC[C@]2(C(=O)NCCCNC3=C4C=CC=[N+]4[B-](F)(F)n4cccc43)CC[C@]3(C)[C@H](CC[C@@H]4[C@@]5(C)CC[C@H](O)C(C)(C)[C@@H]5CC[C@]43C)[C@@H]12",
    "VALUE RELATION SIGN": "<",
    "RECORDED VALUE": 4.30
  },
  {
    "COMPOUND": "C=C(C)[C@@H]1CC[C@]2(C(=O)NCCCNC(=O)OC(C)(C)C)CC[C@]3(C)[C@H](CC[C@@H]4[C@@]5(C)CC[C@H](O)C(C)(C)[C@@H]5CC[C@]43C)[C@@H]12",
    "VALUE RELATION SIGN": "=",
    "RECORDED VALUE": 4.74
  },
  {
    "COMPOUND": "C=C(C)[C@@H]1CC[C@]2(C(=O)N3CCN(CCNC(=O)OC(C)(C)C)CC3)CC[C@]3(C)[C@H](CC[C@@H]4[C@@]5(C)CC[C@H](OC(=O)CC(C)(C)C(=O)O)C(C)(C)[C@@H]5CC[C@]43C)[C@@H]12",
    "VALUE RELATION SIGN": "=",
    "RECORDED VALUE": 4.35
  }
]
